meta.source: PubChem BioAssay

Assay: rapamycin-like changes in RPL19A-GFP expression – cell-based, S. cerevisiae, multiplex flow cytometry, primary screen (AID 1862);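 further: lower values mimic rapamycin by blocking the RPL19A rise seen in DMSO cells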
Conditions: S. cerevisiae RPL19A-GFP strain, flow cytometry fluorescence, 3 h; at 10 µM; active compounds read low
Inconclusive results are not listed.
quantity kind: percent of DMSO control GFP (%)
Give your result in % as a bare value.

molecule	percent of DMSO control GFP, %
COc1ccc2oc(=O)c(C(=O)Nc3ccccc3-c3ccccc3)cc2c1	101
C[C@H]1C[C@@H]2[C@H]([C@@H](O)C[C@@]3(C)[C@H]2CC[C@]3(O)C(=O)CO)[C@@]2(C)C=CC(=O)C=C12	85.8
O=C(O)Cc1ccc(-c2ccccc2)cc1	89.4
COc1ccc(-c2coc3c(CN4CCOCC4)c(O)ccc3c2=O)cc1	105
CN(C)C(=O)CCCCCCCCC(=O)N(C)C	90.6

API: the following record is the query input.
Challenge: Requested read-out: percent of DMSO control GFP. Entry: COc1ccc(C(=O)N2c3cc4c(cc3C(C)=CC2(C)C)OCO4)cc1
Response given: 97.8

----------
Experiment: cytosolic pH regulators acting via V-ATPase – S. cerevisiae, pHLuorin, HTS validation (AID 504600);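 further: plate controls were DMSO for no effect and reference compound for full effect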
Settings: V-ATPase proton transport, at 10 µM, active compounds read high
Consider the following compounds and their measured response readings.
Give your result in % as a bare value.

Solved entries:
compound	measurement unit	response
COc1cc(C(=O)CCN2CCC(c3ccccc3)C2)cc(OC)c1OC (stereo unspecified)	%	-0.17
COc1ccc(C2OC(=O)Cc3cc(OC)c(OC)cc32)cc1 (stereo unspecified)	%	-1.1
C=C(C)[C@@H]1CC=C(CN2CCC(N3CCC(C(=O)N4CCCC4)CC3)CC2)CC1	%	1.83
CC(=O)N1CCN2C(=O)C1CCCC(=O)c1cc(C(C)C)ccc12 (stereo unspecified)	%	0.04
O=C(O)c1cnccn1	%	2.35
CC(=O)[C@H]1CC[C@H]2[C@@H]3CCC4=CC(=O)CC[C@]4(C)[C@H]3[C@H](O)C[C@]12C	%	-2.3
Cc1onc(-c2c(Cl)cccc2Cl)c1C(=O)NC1C(=O)N2C1SC(C)(C)C2C(=O)O (stereo unspecified)	%	-4.49
N#C/C(C(N)=O)=c1/ccc2c(c1)N1C3=C(CCCC3)CC3CCCCC31N=2 (stereo unspecified)	%	-2.62

Challenge: Requested read-out: response. Entry: CC(C)[C@H]1CN(C)CCN1Cc1cn(C)nc1-c1cccc(Cl)c1
Response given: -0.96

Challenge: Requested read-out: response. Entry: NC(N)=NC(N)=NCCc1ccccc1
Response given: -3.91

Challenge: Requested read-out: response. Entry: O=C(O)C1CSC(c2ccco2)N1 (stereo unspecified)
Response given: -1.58

----------
Assay: yeast AGP1-GFP level changes, GLN3 branch – cell-based, multiplex flow cytometry, S. cerevisiae, primary screen (AID 1887);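 further: AGP1-GFP fusion strain of S. cerevisiae within a five-strain barcoded multiplex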
Conditions: 3 h, at 10 µM, active compounds read high
Results filed as inconclusive are left out.
Consider the following compounds and their measured GFP response, % of DMSO readings.
Give your result in % as a bare value.

compound	GFP response, % of DMSO [%]
Cc1occc(=O)c1O	86.1
CC(=O)O[C@]1(C(C)=O)CC[C@H]2[C@@H]3C[C@H](C)C4=CC(=O)CC[C@]4(C)[C@H]3CC[C@@]21C	95.7
CC1(C)CC(CNCCC(c2ccc(F)cc2)c2ccco2)CCO1 (stereo unspecified)	103
CCOC(=O)C1C(=O)OC(C)(C)C1C(C)C(=O)c1ccc(C)cc1 (stereo unspecified)	116
CCOc1ccc2oc(-c3ccccc3)c(C(=O)O)c2c1	105

API: the following record is the query input.
Challenge: Requested read-out: GFP response, % of DMSO. Entry: COc1cc(CNc2ccc(C)c(C)c2)cc(OC)c1OC
Response given: 111
